System: HDAC
protocol notes: Whole-cell HDAC inhibition assay in HeLa cells
Format: cell-based, human
measurement setup: 18 h, Boc-Lys(ε-Ac)-AMC substrate
value kind: IC50 (µM)

compound	target entity	value kind	measured value
COc1c(C2COc3cc(O)c(CC=C(C)C)c(O)c3C2=O)ccc(O)c1CC=C(C)C (centres unmarked) [Compound 1, isosophoranone]	HDAC	IC50	34.7

A. CC(C)=CCc1c2c(c(O)c3c1O[C@@H](c1ccc(O)cc1)[C@@H]3c1cc(O)cc(O)c1)C(=O)C[C@@H](c1ccc(O)cc1O)O2 [Compound 5, alopecurone P]
B. C=C(C)C(CC=C(C)C)Cc1c2c(c(O)c3c1OC(c1ccc(O)cc1)C3c1cc(O)cc(O)c1)C(=O)CC(c1ccc(O)cc1O)O2 (centres unmarked) [Compound 4, alopecurone J]
Could you point out whether the larger IC50 belongs to A or to B ? Label of pick, please.
A
(A: 24.9 µM, B: 3.85 µM)
